Source of measurements: paper PMC12040169

Reported % viability values for the following compounds.
system: HeLa; conditions: bulk resorufin, single well, 28.5 h, 10 µM, Bulk resorufin fluorescence

- Compound: "COc1ccc(NC(=O)[C@@H]2C=CCN2C(=O)c2ccco2)cc1 [CBK284292]"
  Assay System: "HeLa"
  % viability / %: 77.2
- Compound: "Oc1ccccc1-c1cc(-c2cc3ccccc3o2)no1 [CBK019513]"
  Assay System: "HeLa"
  % viability / %: 117
- Compound: "CCOC(=O)CSc1nc2ccccc2nc1NC(C)C [CBK107166]"
  Assay System: "HeLa"
  % viability / %: 111
- Compound: "CCCCn1nc(C)c(-c2cc(C(=O)O)[nH]n2)c1C [CBK287047]"
  Assay System: "HeLa"
  % viability / %: 84.5
- Compound: "CC(C)(C)OC(=O)N1CCC[C@H]1C(=O)c1nccs1 [CBK284282]"
  Assay System: "HeLa"
  % viability / %: 95.5
